Data provenance: paper PMC4749511

- target_of_assay: human Rce1 (HsRce1) (Homo sapiens, UniProt Q9Y256)
- Sequence (Q9Y256 1-329): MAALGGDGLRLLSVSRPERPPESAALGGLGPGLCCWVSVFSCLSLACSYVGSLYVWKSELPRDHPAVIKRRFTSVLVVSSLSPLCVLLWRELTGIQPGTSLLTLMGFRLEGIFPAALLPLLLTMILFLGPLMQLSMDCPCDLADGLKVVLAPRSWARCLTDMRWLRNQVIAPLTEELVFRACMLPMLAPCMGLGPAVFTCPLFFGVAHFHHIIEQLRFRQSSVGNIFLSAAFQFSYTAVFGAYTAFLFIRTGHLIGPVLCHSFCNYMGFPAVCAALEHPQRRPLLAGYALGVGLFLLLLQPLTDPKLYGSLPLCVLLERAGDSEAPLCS
- experiment_description: In vitro fluorescence-based CaaX proteolysis assay
- Assay type: biochemical
- assay_conditions: single-point, 10 μM
measured_parameter: HsRce1 inhibition (in words)

{"columns": ["molecule", "target_of_assay", "observed_measurement"],
 "data": [
  ["CCOC(=O)c1ccc(NC(c2ccccc2)c2ccc(Br)cc2)cc1 (stereo not shown)", "human Rce1 (HsRce1) (Homo sapiens, UniProt Q9Y256)", "relatively inactive"],
  ["CCOC(=O)c1ccc(NC(c2ccc(Br)cc2)c2ccc(Br)cc2)cc1", "human Rce1 (HsRce1) (Homo sapiens, UniProt Q9Y256)", "relatively inactive"],
  ["O=C(O)c1ccc(NC(c2ccccc2)c2ccc(Br)cc2)cc1 (stereo not shown)", "human Rce1 (HsRce1) (Homo sapiens, UniProt Q9Y256)", "relatively inactive"],
  ["Oc1ccc2ccccc2c1C(Nc1ccccc1)c1ccccc1 (stereo not shown)", "human Rce1 (HsRce1) (Homo sapiens, UniProt Q9Y256)", "weaker inhibitors"],
  ["Oc1ccc2ccc(O)c(C(Nc3ccccc3)c3ccccc3)c2c1 (stereo not shown)", "human Rce1 (HsRce1) (Homo sapiens, UniProt Q9Y256)", "weaker inhibitors"],
  ["O=C(O)c1ccc(NC(c2ccc(Br)cc2)c2ccc(Br)cc2)cc1", "human Rce1 (HsRce1) (Homo sapiens, UniProt Q9Y256)", "relatively inactive"],
  ["C[C@@H](N[C@H](c1ccccc1)c1c(O)ccc2ccccc12)c1ccccc1", "human Rce1 (HsRce1) (Homo sapiens, UniProt Q9Y256)", "weaker inhibitors"]
]}
